meta.source: patent US20150239980A1

Molecular target: T1, human MCAM (melanoma cell adhesion molecule) expressed on transfected CHO cells (human, UniProt P43121 24-646)
T1 construct: also called hMCAM; CD146
T1 chain: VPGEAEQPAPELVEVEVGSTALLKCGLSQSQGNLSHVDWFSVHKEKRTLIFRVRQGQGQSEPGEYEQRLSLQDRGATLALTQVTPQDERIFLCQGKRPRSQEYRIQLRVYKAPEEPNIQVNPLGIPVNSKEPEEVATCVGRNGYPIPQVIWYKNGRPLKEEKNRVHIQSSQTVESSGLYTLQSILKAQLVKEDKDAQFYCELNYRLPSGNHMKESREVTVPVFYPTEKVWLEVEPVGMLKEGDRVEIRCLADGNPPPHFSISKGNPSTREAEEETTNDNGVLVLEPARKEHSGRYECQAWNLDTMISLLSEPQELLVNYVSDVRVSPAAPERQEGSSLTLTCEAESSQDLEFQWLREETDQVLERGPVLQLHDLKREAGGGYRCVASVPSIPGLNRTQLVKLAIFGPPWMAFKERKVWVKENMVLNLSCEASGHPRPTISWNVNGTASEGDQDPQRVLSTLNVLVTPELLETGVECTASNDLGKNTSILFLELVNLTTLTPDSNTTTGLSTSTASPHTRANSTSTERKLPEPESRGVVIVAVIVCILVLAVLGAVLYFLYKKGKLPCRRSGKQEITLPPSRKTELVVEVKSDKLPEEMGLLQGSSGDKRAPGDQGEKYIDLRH
Assay: laminin/FACS on hMCAM CHO cells, competitor laminin 411; Expt#1; vs rodent 1749
measurementKind: fold over rodent (blocking, laminin/FACS) (fold)
Respond numerically; units are fold and should not be typed.

Some entries whose results are on file:
binder: h1749VH1 + h1749VL2 (antibody, human IgG1, V domains shown) VH: EVQLVESGGGLVQPGGSLRLSCAASGFTFSSYIMSWVRQAPGKGLEWVATISSGGSSTYYPDSVKGRFTISRDNAKNSLYLQMNSLRAEDTAVYYCTRDDDYDVKVFAYWGQGTMVTVSS VL: DIVMTQSPDSLAVSLGERATINCKSSRSLLNSRIRKNYLAWYQQKPGQPPKLLIYWASTRESGVPDRFTGSGSGTDFTLTISSLQAEDVAVYYCKQSYNLLTFGQGTKVEIK
unitName: fold
observed: 1.1

binder: h1749VH1 + h1749VL1 (antibody, human IgG1, V domains shown, also called humanized 1749 standard VH and VL) VH: EVQLVESGGGLVQPGGSLRLSCAASGFTFSSYIMSWVRQAPGKGLEWVATISSGGSSTYYPDSVKGRFTISRDNAKNSLYLQMNSLRAEDTAVYYCTRDDDYDVKVFAYWGQGTMVTVSS VL: DIVMTQSPDSLAVSLGERATINCKSSRSLLNSRIRKNYLAWYQQKPGQPPKLLIYWASTRESGVPDRFSGSGSGTDFTLTISSLQAEDVAVYYCKQSYNLLTFGQGTKVEIK
unitName: fold
observed: 1.4

Next:
Tell me the measured fold over rodent (blocking, laminin/FACS) of h1749VH2 + h1749VL1 (antibody, human IgG1, V domains shown, also called h1749VH2VL1) VH: EVQLVESGGGLVQPGGSLRLSCAASGFTFSSYIMSWVRQAPGKRLEWVATISSGGSSTYYPDSVKGRFTISRDNAKNSLYLQMNSLRAEDTAVYYCTRDDDYDVKVFAYWGQGTMVTVSS VL: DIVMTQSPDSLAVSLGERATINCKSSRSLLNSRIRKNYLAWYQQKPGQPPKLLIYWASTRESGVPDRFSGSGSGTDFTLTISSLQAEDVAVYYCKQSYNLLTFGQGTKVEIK , please. 1.5
